test system: IGROV1 ovarian; assay: NCI tumour cell line growth inhibition, 48 h
observable: TGI

# example entries with known answers
COc1ccc(-c2cc(C(=O)Nc3cc(C(F)(F)F)cc(C(F)(F)F)c3)c3ccccc3n2)cc1 : 44.9 µM
Cc1cn(C2CC(CCCO)C(CO)O2)c(=O)[nH]c1=O (centres undefined) : > 100 µM
COc1cc2ncnc(-n3ncc4cc(NC(=O)Nc5ccc(Cl)c(Cl)c5)ccc43)c2cc1OC : 4.66 µM
CSc1ncc(Br)c(Sc2nc(N)nc3nc[nH]c23)n1 : 44.2 µM
O=C(O)CC[P+](c1ccccc1)(c1ccccc1)c1ccccc1 : > 100 µM

State its TGI for this compound: CCC(COC(=O)CC[C@@H](NC(=O)C(C)NC(=O)C(C)OC1C(O)C(CO)OC(OCc2ccccc2)C1NC(C)=O)C(N)=O)NC1c2ccccc2Nc2cccc([N+](=O)[O-])c21 (some centres undefined) > 100 µM

Give me measured TGI, please, for this compound: "CN1CN(c2ccccc2)C2(CCN(CCCCCCF)CC2)C1=O" > 100 µM

Supply recorded TGI for O=C1CC(C(OCc2ccccc2)C(OCc2ccccc2)C(COCc2ccccc2)OCc2ccccc2)CC(=O)N1 (centres undefined) here. > 100 µM

For the compound "Cc1cccc2nc3c(=O)[nH]c(=O)nc-3n(C)c12" , report TGI. > 100 µM

Name the recorded TGI of the compound listed here: "Nc1cccc(S(=O)(=O)Nc2nnc(S(N)(=O)=O)s2)c1" > 100 µM

Give reported TGI value for "CN(C)CCNC(=O)c1cccc2cc3cc(O)ccc3nc12" 4.43 µM

For the compound "N/C(=N\NS(=O)(=O)c1ccccc1)Oc1ccc(Br)cc1Br" , give its measured TGI value. > 100 µM

====

Entries and their measured TGI follow.
system: MDA-N; test: NCI tumour cell line growth inhibition, 48 h
Where a SMILES comes first, the peptide text is derived from it. [ ]: non-standard residue; d: D form. The star is where a group is joined. Bn2Val = CC(C)[C@@H](C(=O)*)N(Cc1ccccc1)Cc1ccccc1; NMeV = CN[C@H](C(=O)O)C(C)C; X29 = COc1ccc(CN*)c(OC)c1; dNMeA = CN[C@H](C)C(=O)O

Record excerpt, results attached:
CC1(C)CC2(C)CC1CC2(O)c1ccccc1 (stereo unspecified) : > 100 µM
C[N+](C)(C)C=Nc1cccc2c1CCCC2 : > 100 µM
COc1ccc(CNC(=O)[C@@H]2CCCN2C(=O)[C@@H](C)N(C)C(=O)[C@H](C(C)C)N(C)C(=O)[C@@H](NC(=O)[C@H](C(C)C)N(Cc2ccccc2)Cc2ccccc2)C(C)C)c(OC)c1 (Bn2Val-V[NMeV][dNMeA]P-X29) : 5.78 µM
O=C(O)/C=C\C(=O)Nc1ccccn1 : > 100 µM
[O-][N+]1(CC[N+]2([O-])CCCCC2)CCCCC1 : > 100 µM
Cc1ccc(-c2nnc(CCCCCCCCc3nnc(-c4ccc(C)cc4O)n3N)n2N)c(O)c1 : > 100 µM
Cc1ccc(-c2cc(O)c3nc4ccccc4n3c2)cc1 : > 100 µM
CN(C)c1nc(=NCc2ccco2)ss1 : 33.7 µM

// fetch TGI given entry "CO[C@H]1O[C@@H]2CO[C@@H](c3ccccc3)O[C@H]2[C@@H]2C/C=C\CCC[C@@]12O" 60.8 µM

Recall and state the measured TGI for Cc1nc2ccc(Br)cc2c(=O)n1-c1ccc(NC2OCC(O)C(O)C2O)cc1 (stereo unspecified) . > 100 µM

Supply recorded TGI for "CC(=O)NC1=C(NCCCl)C(=O)c2ccccc2C1=O" here. 38.3 µM

====

test system: SN12C renal; assay: NCI tumour cell line growth inhibition, 48 h
# Lookup of reported TGI keyed by entry

O=c1cccccc1NCCCCCCCNc1cccccc1=O : > 100 µM
CC1(C)CC2(C)CC1CC2(O)c1ccccc1 (stereo not given) : > 100 µM
CCCc1c(C(=O)OCC)[nH]c(-c2ccc(-c3[nH]c(C(=O)OCC)c(CCC)c3C(=O)OCC)s2)c1C(=O)OCC : > 100 µM
NC(=O)c1cc(N(CCO)CCO)c([N+](=O)[O-])cc1[N+](=O)[O-] : > 100 µM
COC(=O)c1cc2c(cc1Cl)SC1=NN(C)S(=O)N1S2(=O)=O (stereo not given) : > 100 µM
O=C(O)c1cc(=O)c2c([nH]c3ccccc32)s1 : > 100 µM
O=C1C(=O)N(c2ccc(Cl)cc2)C(=O)C(=O)C1c1nc2ccccc2s1 : > 100 µM
CN1CCN(Cc2ccc(NC(=O)c3cncc(C#Cc4cnc(N)cc4C#N)c3)cc2C(F)(F)F)CC1 : 10.7 µM

Could you now consider this next molecule?
Return TGI for the following molecule: O=CC(O)C(O)C(O)C1CNC(=S)O1 (stereo not given) > 100 µM

====

system: SNB-19 CNS; assay: NCI tumour cell line growth inhibition, 48 h; in the data active means GI50 below about 0.43 µM; inactive means the rest
I would appreciate it if you answered using one of these outcomes: label 1 = active, label 0 = inactive

CCOC(=O)c1c(C)n(Cc2ccc(Cl)cc2Cl)c2c1cc1oc(=O)c(=O)n3cnc2c13 : label 0
O=S1(=O)N(Cc2ccccc2)[C@@H](Cc2ccccc2)[C@H](O)[C@H](O)[C@H](Cc2ccccc2)N1Cc1ccccc1 : label 0
CCN1CCN(Cc2ccc(NC(=O)Nc3nc4ccc(Oc5ccnc(C(=O)NC)c5)cc4s3)cc2C(F)(F)F)CC1 : label 0
c1cc(-c2nnc(SSc3ncnc4nc[nH]c34)o2)ccn1 : label 0
NCCCCC1NC(=O)C(CC(=O)O)NC(=O)CNC(=O)C(CCCN=C(N)N)NC(=O)C(N)CSSCC(C(=O)O)NC(=O)C(CC(=O)O)NC(=O)C2CCCN2C(=O)CNC1=O (stereo not drawn) : label 0
CCN(Cc1cc(F)ccc1F)c1ccc(CO)c(Cl)c1 : label 0
O=C1C2=C(C(=O)c3cnccc31)C1C=CC2CC1 (stereo not drawn) : label 0

Now consider a different compound.
Dear all, I need the recorded test outcome for "CC(C)(O)/C=C/C(=O)[C@](C)(O)[C@H]1[C@H](O)C[C@@]2(C)[C@@H]3CC=C4[C@@H](C[C@H](O)C(=O)C4(C)C)[C@]3(C)C(=O)C[C@]12C" , thank you. label 1

====

system: HOP-92 NSCLC; test: NCI tumour cell line growth inhibition, 48 h
observable: TGI

Some molecules with recorded TGI:
CCOC(=O)C(NC(=O)CC)(Nc1ccc(S(=O)(=O)Nc2onc(C)c2C)cc1)C(F)(F)F (centres undefined) : > 100 µM
CC(C)OP(=O)(OC(C)C)C1=NN(c2ccc([N+](=O)[O-])cc2)C(P(=O)(OC(C)C)OC(C)C)=NN1c1ccc([N+](=O)[O-])cc1 : > 100 µM
O=c1cccccc1NCCCCCCCNc1cccccc1=O : 97.8 µM
CCOc1ccc(/C(C=O)=C(\Cl)c2ccc(OC)cc2)cc1 : > 100 µM
CN1CCN(Cc2ccc(NC(=O)c3cncc(C#Cc4cnc(N)cc4C#N)c3)cc2C(F)(F)F)CC1 : 4.44 µM
CS[C@]12[C@@H]3C(=O)N(C)C(=O)[C@@H]3[C@](C)(C(=O)N1C)C(=O)N2c1ccccc1 : > 100 µM
O=[N+]([O-])c1ccc2oc(=Nc3ccccc3)c(Nc3ccccc3)nc2c1 : 93 µM
CCCC1C(=O)Nc2cccc3ncn(c23)C1=O (centres undefined) : > 100 µM

Next:
Answer with the recorded TGI for the molecule listed here: "O=C(/C=C/c1ccc(O)c(O)c1)NCc1c[nH]c2ccccc12" > 100 µM

====

Measured TGI, listed per entry for reference.
system: HOP-92 NSCLC; assay: NCI tumour cell line growth inhibition, 48 h
Quick note: give the figure in µM, leave out the unit.

Look over these answered cases.
CO[C@H]1O[C@@H]2CO[C@@H](c3ccccc3)O[C@H]2[C@@H]2C/C=C\CCC[C@@]12O : 43.7
COc1cccc(CN(C)c2ccc(CO)c(Cl)c2)c1 : 56.9
O=Nn1c2ccccc2c2cc([N+](=O)[O-])ccc21 : 29.8

Supply recorded TGI for "CC(C)c1nc(N(C)S(C)(=O)=O)nc(-c2ccc(F)cc2)c1/C=C/[C@@H](O)C[C@@H](O)CC(=O)O" here. 6.68

Consider the molecule "O=C(Nc1ccc(F)cc1F)c1cc(Cl)ccc1O" and give its recorded TGI. 0.942

Look up and state reported TGI for "Cc1c(C(=O)/C=C/C=C/c2ccccc2)[n+](=O)c2ccccc2n1[O-]" 89.1

Look up and report measured TGI for this entry: "Cc1c(OCc2ccccc2)c(=O)ccn1CCc1c[nH]c2ccccc12" 51.3

Supply reported TGI belonging to this molecule: "Cc1ccc(-n2cc(-c3ccc(Cl)cc3)c3c(NN)ncnc32)cc1" 9.04

Return the recorded TGI value; entry: "CC1(c2cc3c(cc2Br)OCO3)SCCCS1" 51.7

Provide TGI value for the following molecule: "COc1ccc(/C=C/C(=O)c2ccc(-n3cc(CN4CCN(c5cc6c(cc5F)c(=O)c(C(=O)O)cn6C5CC5)CC4)nn3)cc2)cc1OC" 38.3

Report TGI, nothing else, for this molecule: "O=C(Nc1ccc(-n2ccc3c(NC(=O)c4ccccc4)ncnc32)cc1)c1cccc(C(F)(F)F)c1" 26

Give TGI for "O=c1c2cc(-c3ccccc3)sc2ncn1Cc1ccc(Cl)c(Cl)c1" 40.5

// Input: "Cc1ccc(NC2=NCCO2)c2c1CCC2" . Output its TGI only. 70

Please list TGI recorded for the molecule "COC(=O)CCc1c(Cc2ccc[nH]2)[nH]c(C(=O)OCc2ccccc2)c1C" 51.4
